- experiment.notes: Pharmacokinetics in rat (PDX-T-07034-R)
- Type: in vivo
- assay.setup: both sexes, plasma, 5 mg/kg, Day 1, 5 mg/kg, range of the mean for males and females and for PDX-10a and PDX-10b, read-out: t1/2 term
outcome.measure: half-life

>  <molecule>
C#CC[C@H](Cc1cnc2nc(N)nc(N)c2n1)c1ccc(C(=O)N[C@@H](CCC(=O)O)C(=O)O)cc1 (single isomer, unassigned) [PDX-10b]

>  <half-life>
1 to 20 h

$$$$

Okay, now this molecule:
The molecule listed as C#CC[C@@H](Cc1cnc2nc(N)nc(N)c2n1)c1ccc(C(=O)N[C@@H](CCC(=O)O)C(=O)O)cc1 (single isomer, unassigned) [PDX-10a] has a reported half-life of 1 to 20 h
